- Test system: Fathead minnow (Pimephales promelas) acute toxicity, lethality
- protocolNotes: DSSTox (EPAFHM) EPA Fathead Minnow Acute Toxicity
observationType: Potency

1) CCCCc1ccc(N)cc1 = 68 µM
2) Cc1cccc([N+](=O)[O-])c1 = 187 µM
3) CCOC(=O)CC(SP(=S)(OC)OC)C(=O)OCC (stereo unspecified) = 42.7 µM
4) COCCCNCc1cc(OC)c(OC)c(OC)c1 = 505 µM
5) C=C(C)C(=O)OCCO = 1740 µM
6) O=C(O)c1ccccc1O = 12500 µM
7) Oc1ccc(Cl)cc1O = 10.9 µM
8) C[CH2][Sn]([CH2]C)([CH2]C)[CH2]C = 0.0468 µM
9) O[C@@H]1C[C@H]2CC[C@@H]1C2 = 2030 µM
10) CC(C)=O = 123000 µM

List the reported Potency of each compound below.
1. CCN(CC)CCCC(C)=O
2. CCCCOC(=O)c1ccccc1C(=O)OCCCC
3. CCCSCCC
4. ClC(Cl)C(Cl)(Cl)Cl
5. ClCCCCl

Result string:
2140 µM
3.59 µM
184 µM
37.2 µM
982 µM

Query string: Please give measured Potency of the following entry: C/C=C/C=C/C
Result string: 243 µM

###

- Test system: Fathead minnow (Pimephales promelas) acute toxicity, lethality
- protocolNotes: DSSTox (EPAFHM) EPA Fathead Minnow Acute Toxicity
Task for the reader: assign each of the following compounds its reported Potency.

1. CC(C)(C)SSC(C)(C)C = 7.68 µM

List the reported Potency of each compound below.
1. CCSCCSCC
2. CCCCCCCCCCC(C)=O

Result string:
["401 µM", "6.4 µM"]

List the reported Potency of each compound below.
1. C=CC(=O)OC1CCCCC1
2. CC1(C)[C@@H]2CC[C@@]1(C)C(=O)[C@H]2Br
3. CCOC(=O)c1ccccc1O
4. CCCC(C)C=O (configuration not stated)
5. CC(Cl)(Cl)Cl
6. N#Cc1cc(I)c(O)c(I)c1
7. CCCc1ccc(O)cc1
8. Cc1cc(C)c(C#N)c(=O)[nH]1

Result string:
9.6 µM
296 µM
122 µM
188 µM
355 µM
18.3 µM
80.8 µM
1060 µM

List the reported Potency of each compound below.
1. O=C(Nc1ccccc1)c1ccccc1O
2. CCOC(=O)CCCCC(=O)OCC

Result string:
1: 18.5 µM; 2: 89.9 µM

List the reported Potency of each compound below.
1. IC(I)I
2. ClC(Cl)C(Cl)Cl

Result string:
["7.42 µM", "121 µM"]

###

- Tested on: Fathead minnow (Pimephales promelas) acute toxicity, lethality
- protocolNotes: DSSTox (EPAFHM) EPA Fathead Minnow Acute Toxicity
Task for the reader: assign each of the following molecules its reported Potency.

These recorded examples may help you get a feel for the data.
1) NC(=O)c1ccc(Cl)cc1Cl = 503 µM
2) CCO = 319000 µM
3) c1ccc(Oc2ccccc2)cc1 = 23.5 µM
4) CN(C)CCCCl = 841 µM

List the reported Potency of each molecule below.
1. CCOC(=O)C(Cc1ccccc1)C(=O)OCC
2. C#CC(O)CCCCC (configuration not stated)

Result string:
21.7 µM
3.27 µM

Query string: Please give measured Potency of the following entry: C=C(CCl)CCl
Result string: 1.52 µM
